The origin of these recorded values is patent US10449208B2.

# TEST PROTOCOL: Prodrug stability assay in bio-relevant media (FaSSIF with Pancreatin, simulated gastrointestinal tract conditions)
# Type: in vitro ADME
# ASSAY CONDITIONS: % parent prodrug remaining at 5 h vs 0 h, 37° C., 0.5 mg/mL Pancreatin in FaSSIF, HPLC area ratio
// reported GI Tract stability for each item listed
Reply numerically in %, unit not repeated.

> print(dat)
                                   compound  result.units  numeric.result
1  CCCOC(=O)C(C)(C)NP(=O)(CO[C@H](C)Cn1cnc2c(N)ncnc21)O[C@@H](C)C(=O)OC(C)C (stereo partly drawn) [Example 22]             %           79.24
2  CC(C)OC(=O)COP(=O)(CO[C@H](C)Cn1cnc2c(N)ncnc21)NC(C)(C)C(=O)OC1CCC1 (single isomer, unassigned) [Example 17B]             %           99.32

Proceeding to the next compound to report its GI Tract stability.
What GI Tract stability value was documented for this compound, CC(C)OC(=O)C(C)(C)NP(=O)(CO[C@H](C)Cn1cnc2c(N)ncnc21)O[C@@H](C)C(=O)OC1CCCC1 (single isomer, unassigned) [Example 13B] ?
99.72
